Test system: Nrf2 / ARE-dependent luciferase in AREc32 reporter cell line
Assay: AREc32 luciferase reporter activation (Nrf2 induction)
Assay type: cell-based, human
Conditions: Table 2; ratio to RTA402
Method: Effect on Ludferase Reporter Activation. Nrf2 is a transcription factor that binds to the antioxidant response element (ARE) sequence in the promoter regions of its target genes. […] Measurement of ARE-dependent luciferase activity allows quantitative assessment of Nrf2 induction. […] The effect of several compounds disclosed herein on luciferase reporter activation was assessed in the AREc32 reporter cell line (see Table 10 and Table 11). […]
Here the recorded Relative Avg AREc32 EC2X Relative to RTA402 (fold) is given for each entry.
Write it as a number; the unit fold goes unstated.

Some molecules with known Relative Avg AREc32 EC2X Relative to RTA402 (fold) results, for comparison:
input_smiles=C[C@@H]1[C@H]2[C@H]3C(=O)C=C4[C@@]5(C)C=C(C#N)C(=O)C(C)(C)[C@@H]5CC[C@@]4(C)[C@]3(C)CC[C@@]2(O)CC[C@H]1C unit_abbrev=fold value_observed=0.575
input_smiles=C[C@@H]1[C@H]2[C@H]3C(=O)C=C4[C@@]5(C)C=C(C#N)C(=O)C(C)(C)[C@@H]5CC[C@@]4(C)[C@]3(C)CC[C@@]2(F)CC[C@H]1C unit_abbrev=fold value_observed=0.984
input_smiles=C[C@@H]1[C@H]2[C@H]3C(=O)C=C4[C@@]5(C)C=C(C#N)C(=O)C(C)(C)[C@@H]5CC[C@@]4(C)[C@]3(C)CC[C@@]2(c2nc(COC(C)(C)C)no2)CC[C@H]1C unit_abbrev=fold value_observed=1.84
input_smiles=C[C@@H]1[C@H]2[C@H]3C(=O)C=C4[C@@]5(C)C=C(C#N)C(=O)C(C)(C)[C@@H]5CC[C@@]4(C)[C@]3(C)CC[C@@]2(c2nc(CO)no2)CC[C@H]1C unit_abbrev=fold value_observed=0.193

Now let's try a different one.
Req: Param readout = Relative Avg AREc32 EC2X Relative to RTA402 (fold); param system = Nrf2 / ARE-dependent luciferase in AREc32 reporter cell line; param query = C[C@@H]1[C@H]2[C@H]3C(=O)C=C4[C@@]5(C)C=C(C#N)C(=O)C(C)(C)[C@@H]5CC[C@@]4(C)[C@]3(C)CC[C@@]2(CNC(=O)OC(C)(C)C)CC[C@H]1C ; response: value
Resp: 1.83

====

System: Nrf2 / ARE-dependent luciferase in AREc32 reporter cell line
Experiment: AREc32 luciferase reporter activation (Nrf2 induction)
Format: cell-based, human
Details: Table 2; ratio to RTA402
# binarize Relative Avg AREc32 EC2X Relative to RTA402 (fold): threshold 1 fold inclusive, high side TRUE, low side FALSE

input_smiles=CC(=O)NC[C@]12CC[C@@H](C)[C@H](C)[C@H]1[C@H]1C(=O)C=C3[C@@]4(C)C=C(C#N)C(=O)C(C)(C)[C@@H]4CC[C@@]3(C)[C@]1(C)CC2 class=FALSE

Req: State whether the measured Relative Avg AREc32 EC2X Relative to RTA402 (fold) reaches 1 fold, counting equality as reaching it, for C[C@@H]1[C@H]2[C@H]3C(=O)C=C4[C@@]5(C)C=C(C#N)C(=O)C(C)(C)[C@@H]5CC[C@@]4(C)[C@]3(C)CC[C@@]2(CN(C)C(=O)C(F)F)CC[C@H]1C
Resp: FALSE

Req: Moving on to C[C@H]1[C@H](C)CCC23CC[C@@]4(C)[C@]5(C)CC[C@H]6C(C)(C)C(=O)C(C#N)=C[C@]6(C)C5=CC(=O)[C@]4(OC2)[C@H]13
Resp: FALSE

Req: Moving on to CNC(=O)[C@]12CC[C@@H](C)[C@H](C)[C@H]1[C@H]1C(=O)C=C3[C@@]4(C)C=C(C#N)C(=O)C(C)(C)[C@@H]4CC[C@@]3(C)[C@]1(C)CC2
Resp: TRUE
